Data origin, for the record: PubChem BioAssay AID602

Field: differential viability (reversal). Provide a value for each of the molecules that follow.
- MEASUREMENT_DESCRIPTION: MRP1 drug-resistance reversers in H69AR cells – cell-based, doxorubicin co-treatment, primary screen (AID 602);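 as to differential viability (reversal): larger differential means the compound sensitizes cells more to doxorubicin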
- CONDITION_SET: H69AR cells + 2 uM doxorubicin, CellTiter-Glo, 72 h; at 10 µM; stronger effect = higher value
Screen size: about 85,000 compounds; about 35 (0.04%) were called active. For the sample, actives were picked, then their nearest neighbours and some compounds at random.
Answers are plain numbers, in %.

Solved entries (count: 4):
[
  {
    "MOLECULE": "O=C(c1cccc(F)c1)N1CCC(O)(c2cccnc2)CC1",
    "differential viability (reversal) [%]": 5.21
  },
  {
    "MOLECULE": "O=C(Nc1ccc2oc(-c3ccc4ccccc4c3)nc2c1)c1cccs1",
    "differential viability (reversal) [%]": -0.32
  },
  {
    "MOLECULE": "Cc1cccc2c(=O)n3c(nc12)CCCCC3",
    "differential viability (reversal) [%]": 7.51
  },
  {
    "MOLECULE": "Cc1ccc(CN(N=Nc2nonc2N)c2nonc2N)c(C)c1",
    "differential viability (reversal) [%]": 2.63
  }
]

For each of the molecules below, note its differential viability (reversal).
1. CCc1ccc(CNC(=O)C2CC(=O)N(CCc3ccc(C)cc3)C2)cc1 (stereo not given)
2. CCSc1ccccc1C(=O)NCc1ccc(OC)cc1

Output line:
1.99
7.76

###

Field: viability. Provide a value for each of the compounds that follow.
- MEASUREMENT_DESCRIPTION: MRP1 drug-resistance reversers in H69AR cells – cell-based, doxorubicin co-treatment, primary screen (AID 602)
- CONDITION_SET: H69AR cells, CellTiter-Glo, 72 h; measured here: cytotoxicity without doxorubicin; at 10 µM
The campaign covered roughly 85,000 compounds. About 35 (0.04%) were called active. The list comes from a sample in which actives are over-represented; it also holds close analogues and randomly drawn compounds.
Give the value; after it, write the unit.

Solved entries (count: 2):
[
  {
    "COMPOUND": "COc1cc(OC)nc(NC(=O)CCl)n1",
    "viability": "98.7%"
  },
  {
    "COMPOUND": "Cc1cc(C)c(NC(=O)CN2CCOCCOCCOCCOCC2)c(C)c1",
    "viability": "97.2%"
  }
]

Input line: For the compound CC(=O)c1cccc(NC(=O)N2CCCC2C(=O)NCCc2ccccc2)c1 (stereo not drawn) , what viability is on record?
Output line: 91.5%

###

Field: differential viability (reversal). Provide a value for each of the compounds that follow.
- MEASUREMENT_DESCRIPTION: MRP1 drug-resistance reversers in H69AR cells – cell-based, doxorubicin co-treatment, primary screen (AID 602);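 as to differential viability (reversal): larger differential means the compound sensitizes cells more to doxorubicin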
- CONDITION_SET: H69AR cells + 2 uM doxorubicin, CellTiter-Glo, 72 h; at 10 µM; stronger effect = higher value
The campaign covered roughly 85,000 compounds. About 35 (0.04%) were called active. The full list was thinned out, with actives kept by preference.
One number for each entry, in %.

Solved entries (count: 4):
[
  {
    "COMPOUND": "Cc1csc(OCC(=O)Nc2ccc(C)c(C)c2)n1",
    "RECORDED_METRIC": "differential viability (reversal)",
    "UNIT_LABEL": "%",
    "RESULT_VALUE": 0.06
  },
  {
    "COMPOUND": "COc1ccccc1C(c1nnnn1C(C)(C)C)N1CCN(Cc2ccccc2)CC1 (centres undefined)",
    "RECORDED_METRIC": "differential viability (reversal)",
    "UNIT_LABEL": "%",
    "RESULT_VALUE": 9.02
  },
  {
    "COMPOUND": "CCCNC(=O)c1ccccc1NC(=O)CSCc1ccc(OC)cc1",
    "RECORDED_METRIC": "differential viability (reversal)",
    "UNIT_LABEL": "%",
    "RESULT_VALUE": 16.1
  },
  {
    "COMPOUND": "COc1ccc(C2CC(=O)n3c(nc4ccccc43)S2)cc1OC (centres undefined)",
    "RECORDED_METRIC": "differential viability (reversal)",
    "UNIT_LABEL": "%",
    "RESULT_VALUE": 4.1
  }
]

For each of the compounds below, note its differential viability (reversal).
1. COc1ccc(-c2cc(C(F)(F)F)nc(NCc3cccnc3)n2)cc1
2. Cc1cnc(NC(=O)C2CCCC2)s1

Output line:
[1.23, -2.44]

For each of the compounds below, note its differential viability (reversal).
1. CCOC(=O)/C(C#N)=C\c1c(C)cc(C)c(COC(C)=O)c1C
2. Nn1c(SCC(=O)NC2CCCC2)nnc1-c1ccccc1F
3. O=C1CSC(c2cccc(F)c2)N1c1ccc(O)cc1 (centres undefined)
4. O=c1[nH]c2c(c(=O)n1Cc1ccccc1)CCC2
5. O=C(NCc1cccnc1)Nc1ccccc1F

Output line:
1: 5.79; 2: 13.3; 3: 12.3; 4: 3.8; 5: -0.98
